Give abundance fitness for every item shown.
B1: POU domain, class 5, transcription factor 1, residues 134 to 212; numbered along this chain, Q01860 (parent)
chain: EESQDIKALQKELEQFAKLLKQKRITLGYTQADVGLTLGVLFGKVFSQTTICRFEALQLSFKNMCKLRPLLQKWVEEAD

Variants of: B1
test_method_notes: abundance fitness (aPCA) (normalised: wild type 0, dead -1); higher = more abundant; growth selection in yeast, the domain comes from the species named
experimental_conditions: Homo sapiens

Solved cases (5 shown):
# mutant_name, abundance fitness
measured = [
    ("K18G", -0.147),
    ("Q48M", 0.348),
    ("Q15H", -0.27),
    ("Q15C", -0.218),
    ("F16A", -0.191),
]

Quick batch: abundance fitness for everything below.
1. K7I
2. I6P
3. K23L

1. -0.391
2. -0.015
3. -0.608

Quick batch: abundance fitness for everything below.
1. Q10D
2. G43K
3. L9K
4. F16E
5. D79A
6. T30A
7. V75G
8. K11N

-0.128
-0.516
0.28
-0.438
-0.741
-0.667
-0.645
0.048

Quick batch: abundance fitness for everything below.
1. G28M
2. W74F
3. K18A
4. Q22F
5. Y29Q
6. F54Q
7. L59P
8. L19G

-0.465
-0.131
0.021
0.56
0.068
-0.891
-0.312
-0.063
